# Tested on: NCI-H226
# EXPERIMENTAL_PROTOCOL: NCI tumour cell line growth inhibition, 48 h
Activity calls are given as the source filed them. No stated cut-off is given here; in the data, active = GI50 up to about 1.1 µM and inactive = higher.
Lab note: assign the record to one of YES (active), NO (inactive)

IN: Could you check what this test reported for `Cc1cnc2c(c1)C(=O)N(c1ccc(Oc3ccccc3)cc1)S2(=O)=O` ?
OUT: NO

IN: // return assay outcome for CN1C(=O)CN2C(Cl)(Cl)C2(c2ccccc2F)c2cc([N+](=O)[O-])ccc21 (configuration not stated)
OUT: NO

IN: Give the logged outcome of this assay for the following compound: COC(=O)C1=C(C)NC(CF)=C(C(=O)OC)C1c1cccc2c(=O)c3ccccc3oc12 (configuration not stated)
OUT: NO

IN: # lookup: test call for `COC(=O)CCC(=O)CC(=O)C(=O)Nc1ccc(F)cc1`
OUT: NO

IN: How did this test come out for `Oc1ccc(-c2nc3ccc(Cl)cc3s2)cc1` ?
OUT: NO

IN: Per the assay record, what outcome was assigned to `Oc1ccc(Br)cc1/C=N/c1c(NC2CCCCC2)oc2ccc(Br)cc12` ?
OUT: NO

IN: What call does the record list for C=C(CCOC)CCC1CCCCC(=C)C1=O (configuration not stated) ?
OUT: NO

IN: Record lookup: outcome of this test for `O=[N+]([O-])/C(C(Cl)=C(Cl)Cl)=C(/Cl)Sc1ccccc1` ?
OUT: NO

IN: Just curious, what result did CCC(=O)O[C@@H]1C2C(OC(C)=O)C34COC(C)([C@@H]3C3C(C[C@]3(C)OC(C)=O)[C@@H](OC(=O)c3ccccc3)C4=O)[C@H](OC(C)=O)[C@@]2(OC(C)=O)C[C@@H]1C (some centres not stated) get here?
OUT: NO

IN: What is the recorded call for this compound in the test? `O=C(O)CNS(=O)(=O)c1ccc(NC(=O)c2ccc([N+](=O)[O-])cc2)cc1`
OUT: NO

IN: # fetch the recorded call for OCC1O[C@H](O[C@@H]2CCCN3CC(O)C(O)[C@@H]23)C(O)C(O)C1O (some centres not stated) here
OUT: NO

IN: Test call, this compound: `c1ccc(/N=c2\snc3scc(-c4ccccc4)n23)cc1`
OUT: NO

IN: Per the records of this test, what outcome belongs to `C/C(=N\NC(=S)NC(C)(C)C)c1ccccn1` ?
OUT: YES

IN: Each compound tested received a call. Report the one for `COc1cc(C(CC(OC)OC)=C(C#N)C#N)cc(OC)c1OC` .
OUT: YES

IN: // outcome(item) with item = `COC(=O)c1cc2c(cc1O)[C@@H](NC(C)=O)CCc1cc(OC)c(OC)c(OC)c1-2`
OUT: YES

IN: Write down the call the test reported for this compound. Item: `O=S1(=O)NN=C(NCc2ccc(Cl)cc2)c2ccccc21`
OUT: NO

IN: How was `COC1=C(OC)C(=O)c2cc(C)c(=O)c(C)cc2C1=O` classified in this test?
OUT: NO

---

# Test system: OVCAR-8
# EXPERIMENTAL_PROTOCOL: NCI tumour cell line growth inhibition, 48 h
Calls of active or inactive are those of the source. Cut-off read from the data, not from the text of the source: active = GI50 up to about 1.1 µM and inactive = higher.
PROPERTY_NAME: GI50

# annotated cases, reported GI50 shown
// GI50 lookup, compound = `CCN(CC)Cc1cc(Nc2ccnc3ccc4nn(C)nc4c23)ccc1O` , result: 11.4 µM (inactive)

get_value(item= `Oc1ccc(Br)cc1/C=N/c1c(NC2CCCCC2)oc2ccc(Br)cc12` , readout=GI50) returns 37.4 µM (inactive)

***
`Oc1ccc(C[C@@H]2CN[C@H](Cc3ccc(O)c(Br)c3)CN2)cc1` yielded GI50 of > 100 µM (inactive)

Field GI50 (entry `O=C(NCc1ccccc1)c1cc2ccccc2o/c1=N\c1cccc(C(F)(F)F)c1` ) reads 56.1 µM (inactive)

For `COc1cc(NS(C)(=O)=O)ccc1N1Cc2c[nH]c3ccc4nccc1c4c23` the compound record lists GI50 as 35.1 µM (inactive)

// field: GI50; key: CCOC(=O)[C@@]1(C)CC(O)C(=O)N1C (stereo partly specified) ; value = > 100 µM (inactive)
